target-or-test-system: Potassium voltage-gated channel subfamily KQT member 2 (Rattus norvegicus)
test-method-notes: rat KCNQ2 potassium channel inhibitors, primary screen, cell-based, CHO-K1, FluxOR thallium flux, B-score (AID 2156)
reported-conditions: 20 min, at 10 µM; active compounds read low
Among all 310,000 compounds or so, about 3,400 (1.1%) were called active. This is one part of a sample in which actives are shown more often than they occur.
quantity-name: B-score

CN(C1CCS(=O)(=O)C1)S(=O)(=O)c1ccc2ccccc2c1 (centres undefined); -0.6 (inactive)
Cc1ccc(NC(=O)CN(C)C(=O)Cn2nnc(-c3ccccc3)n2)cc1; inactive
COC(=O)[C@@]12CCCN1[C@H](c1ccc(-c3ccc(F)cc3)c(OC)c1)[C@H]1C(=O)N(C)C(=O)[C@H]12; inactive
O=C(NC1CCCC1)C(c1ccco1)N(C(=O)c1csnn1)c1ccccc1 (centres undefined); inactive
O=C(Nc1ccc(S(=O)(=O)N2CCCCC2)cc1)C1CCN(C(=O)c2ccc(F)cc2)CC1; -0.91 (inactive)

IN: Look up B-score: COc1ccc2sc(N(CCCN(C)C)C(=O)c3ccc(S(=O)(=O)N(C)C4CCCCC4)cc3)nc2c1
OUT: inactive

IN: Request: COc1ccc(C(=O)OCC(=O)Nc2ccc3[nH]c(=O)[nH]c3c2)c(OC)c1OC
OUT: -0.64 (inactive)

IN: Request: CCN(CC(=O)Nc1cc(Cl)ccc1C)C(=O)CN1C(=O)NC2(CCCC2)C1=O
OUT: -0.62 (inactive)

IN: Request: O=C(CNC(=O)C12CC3CC(CC(C3)C1)C2)OCC(=O)N1CCCCC1
OUT: inactive

====

target-or-test-system: Potassium voltage-gated channel subfamily KQT member 2 (Rattus norvegicus) (UniProt O88943)
Sequence (O88943 whole entry, looked up): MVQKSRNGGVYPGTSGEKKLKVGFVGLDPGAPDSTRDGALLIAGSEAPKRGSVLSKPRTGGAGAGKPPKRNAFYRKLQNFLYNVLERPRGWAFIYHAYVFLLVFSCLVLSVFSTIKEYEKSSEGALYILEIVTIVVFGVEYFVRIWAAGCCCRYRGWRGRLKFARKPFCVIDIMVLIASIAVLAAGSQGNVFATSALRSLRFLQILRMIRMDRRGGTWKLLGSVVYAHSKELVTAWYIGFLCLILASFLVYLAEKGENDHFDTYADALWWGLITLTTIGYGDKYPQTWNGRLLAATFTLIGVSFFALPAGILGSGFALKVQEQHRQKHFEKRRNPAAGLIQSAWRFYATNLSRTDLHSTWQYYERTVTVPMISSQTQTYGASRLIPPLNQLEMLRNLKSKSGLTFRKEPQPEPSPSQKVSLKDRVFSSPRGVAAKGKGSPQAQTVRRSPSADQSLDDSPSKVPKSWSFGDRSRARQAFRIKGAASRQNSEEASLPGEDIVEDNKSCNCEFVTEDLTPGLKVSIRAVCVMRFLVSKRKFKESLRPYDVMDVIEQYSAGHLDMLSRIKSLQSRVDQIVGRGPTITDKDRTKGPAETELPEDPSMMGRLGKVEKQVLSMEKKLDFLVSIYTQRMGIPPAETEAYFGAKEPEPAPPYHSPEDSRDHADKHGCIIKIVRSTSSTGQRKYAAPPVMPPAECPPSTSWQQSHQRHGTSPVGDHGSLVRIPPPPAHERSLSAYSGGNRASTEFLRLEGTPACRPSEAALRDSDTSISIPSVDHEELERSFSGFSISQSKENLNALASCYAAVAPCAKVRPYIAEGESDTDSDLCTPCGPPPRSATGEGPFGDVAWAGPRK
test-method-notes: rat KCNQ2 potassium channel inhibitors, primary screen, cell-based, CHO-K1, FluxOR thallium flux, B-score (AID 2156)
reported-conditions: 20 min, at 10 µM; active compounds read low
Hit rate of the full screen: of about 310,000 compounds, about 3,400 (1.1%) were called active. The sample holds actives, similar compounds and a random draw of the others, so the mix is not that of the screen.
quantity-name: B-score

IN: Look up B-score: COc1ccc(NC(=O)CN(C)C(=O)Cc2coc3cc(C)c(C)cc23)cc1
OUT: -0.02 (inactive)

IN: Request: COc1cc(Cl)ccc1OCc1cc(C(=O)N2CC[C@@H]3CCCC[C@H]3C2)no1
OUT: -3.02 (inactive)

IN: Request: CC(C)N(Cc1nnc(-c2ccc(Cl)cc2)o1)C(=O)C1=COCCO1
OUT: -1.82 (inactive)

IN: Request: CCOC(=O)CC1(NC(=O)c2cc(COc3cncc(Cl)c3)on2)CCCCC1
OUT: -1.68 (inactive)

====

target-or-test-system: Potassium voltage-gated channel subfamily KQT member 2 (Rattus norvegicus) (UniProt O88943)
test-method-notes: rat KCNQ2 potassium channel inhibitors, primary screen, cell-based, CHO-K1, FluxOR thallium flux, B-score (AID 2156)
reported-conditions: 20 min, at 10 µM
Hit rate of the full screen: of about 310,000 compounds, about 3,400 (1.1%) were called active.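 How the source made its calls: active means fluorescence ratio B-score at most minus 3 library SDs, with starting brightness B-score within 2 library SDs (cut at about -5.5 in these data); inactive means the rest, inconclusive results apart.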 Many of the other results were omitted from the sample, so actives are more common in it than they were. Peptide text beside a SMILES is read from it. * marks the point of attachment. OPac = O=C(CO*)c1ccccc1; Bz = O=C(c1ccccc1)*
Would you mind answering with one of these outcomes? t (active), f (inactive)

IN: Write down the call the test reported for this compound. Item: O=C(Nc1cc(Cl)ccc1N1CCOCC1)c1ccc(N2CCCC2=O)cc1
OUT: f

IN: Request: Cc1cc(C(=O)NNC(=O)c2cccc(S(=O)(=O)N3CCOCC3)c2)c2ccccc2n1
OUT: f

IN: Request: Cc1ccc(-c2csc(NC(=O)C3=COCCO3)n2)cc1C
OUT: f

IN: Request: COc1ccc(C)cc1NC(=O)Nc1ccccc1SC
OUT: f

IN: Request: CN(C)Cc1ccccc1C1(O)c2ccccc2CSc2ccccc21 (configuration not stated)
OUT: t

IN: Request: O=C(c1cc2ccccc2o1)N1CCN(c2cccc(C(F)(F)F)c2)CC1
OUT: f

IN: Request: CCOc1ccc(NC(=O)CN(C)C(=O)c2c(C)noc2C)cc1OCC
OUT: f

IN: Request: COc1ccc(C)cc1NC(=O)C(OC(=O)c1cccc(S(=O)(=O)N(C)c2ccccc2)c1)c1ccccc1 (configuration not stated)
OUT: t

IN: Request: CC(C)NC(=O)c1ccc(Cl)cc1Cl
OUT: f

IN: Request: COc1ccc(C2CC(c3cccs3)=NN2C(=O)COC(=O)c2cc3ccccc3cc2O)cc1OC (configuration not stated)
OUT: f

IN: Request: COc1ccc(-c2[nH]nc(-c3ccccc3)c2-c2nc3ccccc3[nH]2)cc1
OUT: t

IN: Request: Cc1ccc(S(=O)(=O)N2CCOCC2)cc1C(=O)NCc1ccc(F)cc1
OUT: f

IN: Request: O=C(NC1CCCCC1)C1c2ccccc2C(=O)N1Cc1ccco1 (configuration not stated)
OUT: f

IN: Request: CCN1C(=O)[C@H]2[C@@H](c3ccc(C)cc3)N3C(=O)N(c4cccc(Br)c4)C(=O)[C@@]3(CC)[C@H]2C1=O
OUT: f

IN: Request: CC(Oc1ccc(Br)cc1)C(=O)NCC(c1ccco1)N1CCCCC1 (configuration not stated)
OUT: f

IN: Request: N#CC1(NC(=O)COC(=O)CSc2ccc(F)cc2)CCCCC1
OUT: f

IN: Request: CC(=O)O[C@H]1CC[C@@]2(C)[C@@H](CC[C@@H]3[C@@H]2CC[C@]2(C)[C@@H](C(C)(C)O)C[C@@H]32)C1
OUT: f

IN: Request: Cc1ccccc1OCC(=O)NCC(=O)OCC(=O)c1ccc2ccccc2c1
OUT: t

IN: Request: O=C(NCC(=O)N1CCCC(C(F)(F)F)C1)c1ccccc1F (configuration not stated)
OUT: f

IN: Request: Cc1ccc(S(=O)(=O)N(C)C)cc1NC(=O)C1Cc2ccccc2CN1C(=O)c1ccco1 (configuration not stated)
OUT: f

IN: Request: Cc1ccc(S(=O)(=O)N2CCOCC2)cc1C(=O)Nc1ccccc1N1CCCC1
OUT: t

IN: Request: Nc1ccccc1SC(C[N+](=O)[O-])c1ccccc1 (configuration not stated)
OUT: t

IN: Request: O=C(Nc1ccccc1N1CCCC1)c1ccc(F)c(S(=O)(=O)N2CCOCC2)c1
OUT: f

IN: Request: O=c1[nH]c(CSc2ncc(-c3ccc(F)cc3)n2Cc2ccco2)nc2ccccc12
OUT: f

IN: Request: Nc1c(-c2ccccc2)nnn1Cc1ccccc1
OUT: f

IN: Request: CSc1ccccc1NC(=O)c1cnc2sc(C)cn2c1=O
OUT: f

IN: Request: COc1ccc(NC(=O)CN(C)C(=O)/C=C/c2cn(Cc3ccccc3)nc2-c2cccnc2)cc1
OUT: f

IN: Request: COCCNC(=O)COc1ccccc1C
OUT: f

IN: Request: O=C1c2cccc(OCC(=O)N3N=C(c4cccs4)CC3c3ccc(F)cc3)c2CCN1Cc1ccccc1 (configuration not stated)
OUT: t

IN: Request: CC12CCC(C(=O)N3CCN(c4ncccn4)CC3)(c3nc4ccccc4nc31)C2(C)C (configuration not stated)
OUT: t

IN: Request: O=C(CNC(=O)c1ccccc1)NCC(=O)OCC(=O)c1ccccc1 (Bz-Gly-Gly-OPac)
OUT: f

IN: Request: COc1cccc(N2CC(C(=O)NCc3n[nH]c(=O)c4ccccc34)CC2=O)c1 (configuration not stated)
OUT: f

IN: Request: Cc1cc(C(=O)Nc2ccccc2N2CCOCC2)c2ccccc2n1
OUT: t

IN: Request: Cc1cccc(C)c1NC(=O)CNC(=O)c1c(C)nn(-c2ccccc2)c1C
OUT: f

IN: Request: CCC(CC)c1nnc(NC(=O)C2=COCCO2)s1
OUT: f

IN: Request: CCN(CC)c1ccc(S(=O)(=O)N2CCCCC2)cc1NC(=O)C1=COCCO1
OUT: f

IN: Request: O=C(COC(=O)Cn1[nH]c(=O)c2ccccc2c1=O)Nc1c(Cl)cccc1C(F)(F)F
OUT: f

IN: Request: Cc1nn(C)c(C)c1NS(=O)(=O)c1ccc(OC(F)(F)F)cc1
OUT: f

IN: Request: CC12CCC(=O)N1C(C(=O)Nc1ccc(F)c(F)c1F)CS2 (configuration not stated)
OUT: f

IN: Request: COc1ccc(OC(C)C(=O)NCCc2nc3ccccc3[nH]2)cc1 (configuration not stated)
OUT: f

IN: Request: Nc1ccccc1SCc1cc([N+](=O)[O-])cc2c1OCOC2
OUT: f

IN: Request: COc1cc(C(=O)N(C)Cc2cccc(OC)c2OC)ccc1OCC(=O)Nc1cccc(C(F)(F)F)c1
OUT: f
